# Target system: NELF-A full-length;NELF-B;NELF-D (called NELF-C) (Homo sapiens;Homo sapiens;Homo sapiens, UniProt Q9H3P2;Q8WX92;Q8IXH7-4 1-528;49-628;1-581, ||)
# Sequence (Q9H3P2 whole entry, chain 1 of 3): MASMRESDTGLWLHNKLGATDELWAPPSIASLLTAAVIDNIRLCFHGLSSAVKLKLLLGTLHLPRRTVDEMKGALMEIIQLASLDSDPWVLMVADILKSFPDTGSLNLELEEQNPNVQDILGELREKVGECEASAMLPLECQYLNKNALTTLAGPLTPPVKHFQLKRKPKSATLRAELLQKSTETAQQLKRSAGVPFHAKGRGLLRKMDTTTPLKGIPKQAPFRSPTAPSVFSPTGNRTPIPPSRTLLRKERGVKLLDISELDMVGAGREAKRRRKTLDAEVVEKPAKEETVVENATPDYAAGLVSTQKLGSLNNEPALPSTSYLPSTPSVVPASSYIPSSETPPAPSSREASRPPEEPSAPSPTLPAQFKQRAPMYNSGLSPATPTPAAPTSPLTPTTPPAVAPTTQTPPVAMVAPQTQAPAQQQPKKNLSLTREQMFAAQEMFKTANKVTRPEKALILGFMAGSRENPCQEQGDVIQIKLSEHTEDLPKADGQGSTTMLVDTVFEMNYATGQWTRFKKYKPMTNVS
# Sequence (Q8WX92 whole entry, chain 2 of 3): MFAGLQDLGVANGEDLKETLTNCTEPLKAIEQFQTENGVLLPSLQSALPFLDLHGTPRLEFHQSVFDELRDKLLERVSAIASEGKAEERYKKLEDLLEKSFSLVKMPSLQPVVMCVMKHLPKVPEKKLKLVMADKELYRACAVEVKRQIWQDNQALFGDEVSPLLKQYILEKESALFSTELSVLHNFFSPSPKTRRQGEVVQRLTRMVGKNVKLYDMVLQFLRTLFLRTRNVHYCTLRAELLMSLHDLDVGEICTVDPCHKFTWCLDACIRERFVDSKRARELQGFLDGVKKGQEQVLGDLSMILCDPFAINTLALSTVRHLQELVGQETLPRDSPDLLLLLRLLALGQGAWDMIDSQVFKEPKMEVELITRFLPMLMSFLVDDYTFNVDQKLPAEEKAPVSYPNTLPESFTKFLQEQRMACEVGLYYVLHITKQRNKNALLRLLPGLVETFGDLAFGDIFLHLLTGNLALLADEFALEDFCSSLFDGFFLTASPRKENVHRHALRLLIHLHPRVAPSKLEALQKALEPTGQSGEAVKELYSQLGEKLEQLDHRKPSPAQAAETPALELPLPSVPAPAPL
# Sequence (Q8IXH7 10-590, chain 3 of 3): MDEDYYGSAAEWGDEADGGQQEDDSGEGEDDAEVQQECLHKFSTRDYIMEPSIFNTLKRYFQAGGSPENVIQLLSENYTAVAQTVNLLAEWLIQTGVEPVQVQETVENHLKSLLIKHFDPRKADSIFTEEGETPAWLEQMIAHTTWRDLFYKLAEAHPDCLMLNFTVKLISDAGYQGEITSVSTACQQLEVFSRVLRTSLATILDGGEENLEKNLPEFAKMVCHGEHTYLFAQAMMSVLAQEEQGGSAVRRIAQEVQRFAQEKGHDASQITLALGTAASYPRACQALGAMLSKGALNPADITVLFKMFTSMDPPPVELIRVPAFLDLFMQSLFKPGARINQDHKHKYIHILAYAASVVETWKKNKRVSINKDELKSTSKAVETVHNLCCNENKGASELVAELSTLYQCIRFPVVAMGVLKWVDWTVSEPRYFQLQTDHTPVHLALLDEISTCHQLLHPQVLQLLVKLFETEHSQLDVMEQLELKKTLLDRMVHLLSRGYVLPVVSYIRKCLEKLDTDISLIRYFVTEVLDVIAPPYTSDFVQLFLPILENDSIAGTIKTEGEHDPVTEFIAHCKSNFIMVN
# Experiment description: fluorescence anisotropy; yeast tRNA 5 ug/ml; NELF-AC: 30 mM NaCl, 3 mM MgCl2, 10 mM Na-HEPES pH 7.4, 2 mM DTT, 50 ug/ml BSA; other NELF complexes: same with 60 mM NaCl and 5 ug/ml yeast tRNA; 10 nM nucleic acid, incubated at RT, read at 30 C
# Condition summary: protein: recombinant;recombinant;recombinant; tags: none stated;N-His6-TEV in NELF-B and NELF-BE constructs (cleaved);N-His6-TEV, cleaved; copies: 1;1;1; label: 5'-FAM; hairpin
Quantity kind: Kd (µM)
Response body: numeric value in µM, unit text excluded.

Enquiry: Tell us which Kd value is on record for CCAGAUCUGAGCCUGGGAGCUCUCUGG (structured_RNA) [HIV-1 TAR RNA stem loop]
Return: 1.32

Each recorded value in this set is attributed to paper PMC4940160.
